Exercise: for every item that follows, state its recorded normalized growth.
Assay: chemical genetic growth profiling, strain panel (AID 1159580);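 note: tested at 20 µM; growth read once vehicle control cultures reached saturation at 30 °C; 1 = growth at the plate median or of vehicle wells; lower values mean less growth of the strain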
Settings: S. cerevisiae deletion strains, growth OD, locus YDR363W, strain ESC2, hits give low values
In all, about 5,500 compounds went through this assay and about 2,000 (36%) were called active. About 18% were inconclusive and are not listed. This is one part of the list.

{"columns": ["compound", "normalized growth"],
 "data": [
  ["Cn1ccc2cc3c(cc21)CCN3C(=O)Nc1cccnc1", "0.999 (inactive)"],
  ["CC1=C(/C=C/C(C)=C/C=C/C(C)=C/C(=O)O)C(C)(C)CCC1", "0.994 (inactive)"],
  ["Brc1c(NC2=NCCN2)ccc2nccnc12", "1 (inactive)"],
  ["CCN(CCCl)Cc1ccccc1Br", "0.91 (inactive)"]
]}

Value sought for every listed compound: normalized growth.
1. COC(=O)c1c(-c2cc(OC)c(OC)c(OC)c2)c2ccc(OCc3ccccn3)cc2c(=O)n1-c1ccc(N)cc1
2. COc1ccc(/C=C/C(=O)Nc2ccccc2C(=O)O)cc1OC

## Result
["1.01 (inactive)", "1.01 (inactive)"]

Record normalized growth per entry; entries follow.
1. COc1cc2c(cc1C(F)(F)F)N(C(=O)Nc1cc(F)cc(-c3cccnc3)c1)CC2
2. CN(C(=O)Cc1ccc(Cl)c(Cl)c1)C(CN1CCCC1)c1cccc(OCC(=O)O)c1 (stereo not given)
3. CC(C)COC(=O)OCN1C(=O)CN(CCN2CC(=O)N(COC(=O)OCC(C)C)C(=O)C2)CC1=O
4. CC[C@H]1CN2CCc3cc(OC)c(OC)cc3[C@@H]2C[C@@H]1C[C@H]1NCCc2cc(OC)c(OC)cc21
5. CC1=C(/C=C/C(C)=C/C=C/C(C)=C\C(=O)O)C(C)(C)CCC1
6. COc1ccccc1N1CCNCC1
7. COc1ccccc1N1CCN(CCCNc2c(C)c(=O)n(C)c(=O)n2C)CC1
8. CCC(=O)N1CCN(C(=O)c2ccccc2)CC1

## Result
1: 1 (inactive); 2: 0.961 (inactive); 3: 1.01 (inactive); 4: 0.999 (inactive); 5: 1.01 (inactive); 6: 0.962 (inactive); 7: 1.01 (inactive); 8: 0.993 (inactive)

## Task Endpoint output: normalized growth of CC1=C(C(=O)O)N2C(=O)[C@@H](NC(=O)C(N)C3=CCC=CC3)[C@H]2SC1 (stereo not given in full) . Value?
## Result 1.03 (inactive)

====

Exercise: for every item that follows, state its recorded normalized growth.
Assay: chemical genetic growth profiling, strain panel (AID 1159580)
Conditions: S. cerevisiae deletion strains, growth OD, locus YPL055C, strain LGE1, hits give low values
The whole screen tested about 5,500 compounds, of which about 2,000 (36%) were called active. About 18% were inconclusive and are not listed. The list shows a part of the results.

{"columns": ["compound", "normalized growth"],
 "data": [
  ["CCOC(=O)Nc1ccc(NCc2ccc(F)cc2)nc1N", "1.02 (inactive)"]
]}

I'm hoping you can list normalized growth for every compound here, please.
1. CCn1cc(C(=O)O)c(=O)c2cnc(N3CCCC3)nc21
2. CCOC(=O)C1=CC2(CC)CCCN3CCc4c(n1c1ccccc41)C32 (centres undefined)

## Result
["1.02 (inactive)", "1.02 (inactive)"]

## Task Requested read-out: normalized growth. Entry: `C=CCN1CC[C@]23c4c5ccc(O)c4O[C@@H]2/C(=N\N=C2\CC[C@@]4(O)C6Cc7ccc(O)c8c7[C@@]4(CCN6CC=C)[C@@H]2O8)CC[C@@]3(O)C1C5`
## Result 0.982 (inactive)

====

Assay: chemical genetic growth profiling, strain panel (AID 1159580)
Conditions: S. cerevisiae deletion strains, growth OD, locus YAL013W, strain DEP1, hits give low values
About 2,000 (36%) of roughly 5,500 compounds were called active. About 18% were inconclusive and are not listed. Some of the results follow.
Please respond with reported normalized growth for every item in the list.
One number for each entry.

Guide cases for normalized growth, answers given:
{"columns": ["molecule", "normalized growth"],
 "data": [
  ["CC(N)=NCCCC[C@@H](N)C(=O)O", 1.01],
  ["Fc1cccc(Cl)c1Cn1nnc(N2CCCCC2)n1", 0.973],
  ["COc1nc(N)nc(SC)n1", 0.995]
]}

Items follow; give normalized growth for each.
1. O=C(O)c1cc(C(F)(F)F)ccc1F
2. O=C(O)CCCCC1SCC2NC(=O)NC21 (configuration not stated)
3. N/C(=N\OC(=O)c1ccno1)c1ccc(C(F)(F)F)cc1
4. CN1c2ccccc2C(=O)NC1c1cc(Br)cs1 (configuration not stated)

## Result
1. 0.999
2. 1.02
3. 0.951
4. 1.02

====

Test: chemical genetic growth profiling, strain panel (AID 1159580)
Settings: S. cerevisiae deletion strains, growth OD, locus YJL092W, strain hpr5
In all, about 5,500 compounds went through this assay and about 2,000 (36%) were called active. Inconclusive results (about 18%) are left out. Rule as the data show it: active = normalized growth mostly below about 0.91 (no sharp cut-off); inconclusive = no clear call, values can overlap the other calls; inactive = mostly above about 0.92. This is one part of the list.
Field 'call' accepts active, inactive

These solved cases illustrate the format of a correct answer.
{"columns": ["compound", "group"],
 "data": [
  ["O=C(O)c1cc(=O)c2c(OCC(O)COc3cccc4oc(C(=O)O)cc(=O)c34)cccc2o1", "inactive"],
  ["CCOC(=O)CCCCCCCCCCCCC1C=CCC1 (centres undefined)", "inactive"],
  ["Nc1nc2ncc(CNc3ccc(C(=O)N[C@@H](CCC(=O)O)C(=O)O)cc3)nc2c(=O)[nH]1", "inactive"]
]}

Turning now to a further record.
## Task Test call for this compound, please: CN(Cc1cnc2nc(N)nc(N)c2n1)c1ccc(C(=O)NC(CCC(=O)O)C(=O)O)cc1 (centres undefined)
## Result active

====

Assay: chemical genetic growth profiling, strain panel (AID 1159580);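 note: tested at 20 µM; growth read once vehicle control cultures reached saturation at 30 °C; 1 = growth at the plate median or of vehicle wells; lower values mean less growth of the strain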
Conditions: S. cerevisiae deletion strains, growth OD, locus YDL074C, strain BRE1, hits give low values
Screen size: about 5,500 compounds; about 2,000 (36%) were called active. Not shown: some 18% with an inconclusive outcome. This is one part of the list.
// returns 0.0 unless normalized growth is strictly below 1, in which case 1.0

Sample answers from the record:
{"columns": ["compound", "group"],
 "data": [
  ["C[C@H](COc1ccccc1)N[C@H](C)[C@H](O)c1ccc(O)cc1", 0.0],
  ["COc1ccc(/C=C/c2cc(O)cc(O)c2)cc1", 1.0],
  ["CCOC(=O)CCCCCCCCCCCCC1C=CCC1 (centres undefined)", 1.0]
]}

## Task Hi there! Is normalized growth for `COc1cc(C(=O)O)cc(OC)c1O` below 1, do you know?
## Result 1.0

## Task Bench note: check whether `O=C(O)c1cc(O)c(O)c(O)c1` shows normalized growth below 1
## Result 0.0

## Task Criterion: normalized growth strictly below 1. Is it met by `Oc1ccc(/C=C/c2cc(O)cc(O)c2)cc1` ?
## Result 1.0

## Task Lab note: confirm whether the reported normalized growth for this compound is below 1, equality not counting. compound: `OC/C=C/c1ccc(O)c(O)c1`
## Result 1.0

## Task Take the compound `O=C(/C=C/c1ccc(O)c(O)c1)O[C@@H]1C[C@](O)(C(=O)O)C[C@@H](O)[C@H]1O` and say whether its normalized growth is less than 1.
## Result 0.0

## Task Below 1 on normalized growth? Entry `C/C=C/c1ccc(OC)cc1`
## Result 0.0

====

Assay: chemical genetic growth profiling, strain panel (AID 1159580);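 note: tested at 20 µM; growth read once vehicle control cultures reached saturation at 30 °C; 1 = growth at the plate median or of vehicle wells; lower values mean less growth of the strain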
Details: S. cerevisiae deletion strains, growth OD, locus YBR136W, strain MEC1, hits give low values
Hit rate of the full screen: of about 5,500 compounds, about 2,000 (36%) were called active. Inconclusive results (about 18%) are left out. The list shows a part of the results.
readoutType: normalized growth

{"columns": ["molecule", "normalized growth"],
 "data": [
  ["OC(c1ccc(C(F)(F)F)cc1)c1cccc(C(F)(F)F)c1 (stereo not drawn)", "0.967 (inactive)"],
  ["CC(C)(O)C#Cc1ccc(/C=N\\Nc2c(Cl)cc(Cl)cc2Cl)cc1", "0.979 (inactive)"]
]}

## Task Fill in the blank: the reported normalized growth of `O=C(Nc1ccc(Cl)cc1Cl)c1cnccc1C(F)(F)F` is ____.
## Result 0.971 (inactive)

====

Assay: chemical genetic growth profiling, strain panel (AID 1159580);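 note: tested at 20 µM; growth read once vehicle control cultures reached saturation at 30 °C; 1 = growth at the plate median or of vehicle wells; lower values mean less growth of the strain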
Settings: S. cerevisiae deletion strains, growth OD, locus YLL001W, strain dnm1, hits give low values
In all, about 5,500 compounds went through this assay and about 2,000 (36%) were called active. About 18% were inconclusive and are not listed. This is one part of the list.
Answer each item with its documented normalized growth.
Give bare numbers.

{"columns": ["compound", "normalized growth"],
 "data": [
  ["CC(=O)OCC(=O)[C@@]12OC(C)(C)O[C@@H]1CC1C3C[C@H](F)C4=CC(=O)C=C[C@]4(C)[C@@]3(F)[C@@H](O)C[C@@]12C (stereo not given in full)", 1.03],
  ["COP(=S)(OC)Oc1ccc(SC)c(C)c1", 0.986],
  ["COc1ccc2c(c1O)-c1c(OC)c(OC)cc3c1[C@H](C2)N(C)CC3", 0.986]
]}

Quick one: give me normalized growth for each item below, same order please.
1. CC(=O)O[C@H]1C[C@@H](OC(C)=O)C(C)(C)C2C[C@@H](OC(C)=O)[C@]3(C)C(CC[C@@]4(C)[C@H](c5ccoc5)C(=O)[C@H]5O[C@]543)[C@]21C (stereo not given in full)
2. CCOC(=O)c1ccc(N)cc1
3. CCOC(N)=O

## Result
1: 1; 2: 1.01; 3: 1.01

Please supply normalized growth for each of the following items, keeping them in order.
1. O=C1O[C@@H](CO)[C@H](O)[C@@H](O)[C@@H]1O
2. Nc1nc2ncc(CNc3ccc(C(=O)N[C@@H](CCC(=O)O)C(=O)O)cc3)nc2c(=O)[nH]1
3. NC(=O)c1cnccn1
4. CCCNC(C)C(=O)Nc1ccccc1C (stereo not given)

## Result
[1.01, 0.967, 0.955, 1.01]
